Below is a list of entries, each paired with its recorded residual activity value.
- TESTED SYSTEM: UniProt Q9UIK4
- Sequence (Q9UIK4 whole entry, looked up): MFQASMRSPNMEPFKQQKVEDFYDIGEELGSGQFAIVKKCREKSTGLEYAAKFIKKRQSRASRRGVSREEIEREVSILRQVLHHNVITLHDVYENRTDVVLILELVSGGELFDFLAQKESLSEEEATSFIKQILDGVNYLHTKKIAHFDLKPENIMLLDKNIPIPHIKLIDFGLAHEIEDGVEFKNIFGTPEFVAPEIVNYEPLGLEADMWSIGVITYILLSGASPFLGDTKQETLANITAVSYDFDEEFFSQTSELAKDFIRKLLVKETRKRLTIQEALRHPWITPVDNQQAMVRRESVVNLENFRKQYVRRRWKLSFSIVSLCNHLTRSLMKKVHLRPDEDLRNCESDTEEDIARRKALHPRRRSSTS
- PROTOCOL NOTES: radiometric filter-binding kinase assay, Kinase HotSpot
- TEST SETTINGS: compound 0.5 µM; ATP 10 µM

COMPOUND STRING: Cc1cncc2cccc(S(=O)(=O)N3CCCN(C(=O)CN)C[C@H]3C)c12
TESTED SYSTEM: UniProt Q9UIK4
residual activity / %: 103

COMPOUND STRING: O=C(c1cc2cc(O)ccc2[nH]1)c1cc2cc(O)ccc2[nH]1
TESTED SYSTEM: UniProt Q9UIK4
residual activity / %: 101

COMPOUND STRING: COc1cc2ncnc(Nc3ccc(OCc4ccccc4)cc3)c2cc1OC
TESTED SYSTEM: UniProt Q9UIK4
residual activity / %: 99.9

COMPOUND STRING: O=C1c2ccccc2-c2nc3nnnn3nc21
TESTED SYSTEM: UniProt Q9UIK4
residual activity / %: 83.4

COMPOUND STRING: CS(=O)(=O)CCNCc1ccc(-c2ccc3ncnc(Nc4ccc(OCc5cccc(F)c5)c(Cl)c4)c3c2)o1
TESTED SYSTEM: UniProt Q9UIK4
residual activity / %: 103

COMPOUND STRING: CCCCc1c(-c2ccc(OC)cc2)[nH]c2nccnc12
TESTED SYSTEM: UniProt Q9UIK4
residual activity / %: 101

COMPOUND STRING: NC(=O)c1cccc(-c2cc(Nc3ccc(OC(F)(F)F)cc3)ncn2)c1
TESTED SYSTEM: UniProt Q9UIK4
residual activity / %: 99.1

COMPOUND STRING: Cn1c2ccccc2c2c3c(c4c5ccccc5n(CCC#N)c4c21)CNC3=O
TESTED SYSTEM: UniProt Q9UIK4
residual activity / %: 84.4

COMPOUND STRING: C[C@@H]1CCN(C(=O)CC#N)C[C@@H]1N(C)c1ncnc2[nH]ccc12
TESTED SYSTEM: UniProt Q9UIK4
residual activity / %: 89.5

COMPOUND STRING: COc1cc2ncnc(Nc3ccc(Oc4ccccc4)cc3)c2cc1OC
TESTED SYSTEM: UniProt Q9UIK4
residual activity / %: 102

COMPOUND STRING: N#Cc1c[nH]c2c[nH]/c(=N\Cc3cccnc3)cc2/c1=N\c1ccc(F)c(Cl)c1
TESTED SYSTEM: UniProt Q9UIK4
residual activity / %: 108

COMPOUND STRING: Cc1nc(-c2ccccc2)c(-c2ccncc2)o1
TESTED SYSTEM: UniProt Q9UIK4
residual activity / %: 106

COMPOUND STRING: Cc1cccc(-c2nc(C(C)(C)C)[nH]c2-c2ccc3c(c2)OCO3)n1
TESTED SYSTEM: UniProt Q9UIK4
residual activity / %: 102

COMPOUND STRING: COc1ccc(S(=O)(=O)N(CCO)c2ccccc2CN(C)C/C=C/c2ccc(Cl)cc2)cc1
TESTED SYSTEM: UniProt Q9UIK4
residual activity / %: 107

COMPOUND STRING: COc1ccc2c(c1)/C(=C/c1cnc[nH]1)C(O)=N2
TESTED SYSTEM: UniProt Q9UIK4
residual activity / %: 97.3

COMPOUND STRING: COc1ccc2c(c1)c(C1=C(c3c[nH]c4ccccc34)C(=O)NC1=O)cn2CCCN(C)C
TESTED SYSTEM: UniProt Q9UIK4
residual activity / %: 81.1

COMPOUND STRING: COc1cc(Nc2c(C#N)cnc3cc(OCCCN4CCN(C)CC4)c(OC)cc23)c(Cl)cc1Cl
TESTED SYSTEM: UniProt Q9UIK4
residual activity / %: 82.9

COMPOUND STRING: CN(C)S(=O)(=O)c1ccc2c(c1)/C(=C/c1cc3c([nH]1)CCCC3)C(=O)N2
TESTED SYSTEM: UniProt Q9UIK4
residual activity / %: 93.5

COMPOUND STRING: CO[C@@H]1[C@H](N(C)C(=O)c2ccccc2)C[C@H]2O[C@]1(C)n1c3ccccc3c3c4c(c5c6ccccc6n2c5c31)C(=O)NC4
TESTED SYSTEM: UniProt Q9UIK4
residual activity / %: 105

COMPOUND STRING: CN(C)CCCn1cc(C2=C(c3c[nH]c4ccccc34)C(=O)NC2=O)c2ccccc21
TESTED SYSTEM: UniProt Q9UIK4
residual activity / %: 105

COMPOUND STRING: Ic1cccc(CSc2nnc(-c3ccncc3)o2)c1
TESTED SYSTEM: UniProt Q9UIK4
residual activity / %: 108

----------
- TESTED SYSTEM: GRK6 (human) (UniProt P43250)
- Sequence (P43250 whole entry, looked up): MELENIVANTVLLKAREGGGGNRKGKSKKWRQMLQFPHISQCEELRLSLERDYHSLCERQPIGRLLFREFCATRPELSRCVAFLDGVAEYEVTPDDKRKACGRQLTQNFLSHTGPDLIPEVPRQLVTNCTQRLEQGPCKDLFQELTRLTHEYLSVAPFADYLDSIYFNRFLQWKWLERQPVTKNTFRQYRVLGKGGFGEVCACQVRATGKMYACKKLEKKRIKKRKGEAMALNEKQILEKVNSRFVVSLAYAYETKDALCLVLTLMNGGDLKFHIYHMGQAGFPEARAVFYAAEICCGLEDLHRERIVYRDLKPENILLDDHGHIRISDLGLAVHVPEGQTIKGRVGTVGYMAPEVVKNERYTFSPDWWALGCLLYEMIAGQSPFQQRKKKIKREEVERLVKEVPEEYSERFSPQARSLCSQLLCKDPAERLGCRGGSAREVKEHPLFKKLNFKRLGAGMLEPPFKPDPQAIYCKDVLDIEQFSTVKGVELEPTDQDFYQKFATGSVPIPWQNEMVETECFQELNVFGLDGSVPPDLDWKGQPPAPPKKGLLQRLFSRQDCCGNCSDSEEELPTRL
- PROTOCOL NOTES: radiometric filter-binding kinase assay, Kinase HotSpot
- TEST SETTINGS: compound 0.5 µM; ATP 10 µM

COMPOUND STRING: CN(C)c1ccc(/C=C2\C(=O)Nc3ccccc32)cc1
TESTED SYSTEM: GRK6 (human) (UniProt P43250)
ENDPOINT UNIT: %
residual activity: 102
//
COMPOUND STRING: O=C1C(Cl)=C(N2C(=O)CCC2=O)C(=O)c2ccccc21
TESTED SYSTEM: GRK6 (human) (UniProt P43250)
ENDPOINT UNIT: %
residual activity: 98.5
//
COMPOUND STRING: COc1ccc2c(c1)c(C1=C(c3c[nH]c4ccccc34)C(=O)NC1=O)cn2CCCN(C)C
TESTED SYSTEM: GRK6 (human) (UniProt P43250)
ENDPOINT UNIT: %
residual activity: 96.2
//
COMPOUND STRING: COc1cc2ncnc(Nc3ccc(Oc4ccccc4)cc3)c2cc1OC
TESTED SYSTEM: GRK6 (human) (UniProt P43250)
ENDPOINT UNIT: %
residual activity: 99.6
//
COMPOUND STRING: O=C(c1cc2cc(O)ccc2[nH]1)c1cc2cc(O)ccc2[nH]1
TESTED SYSTEM: GRK6 (human) (UniProt P43250)
ENDPOINT UNIT: %
residual activity: 102
//
COMPOUND STRING: CCCCc1c(-c2ccc(OC)cc2)[nH]c2nccnc12
TESTED SYSTEM: GRK6 (human) (UniProt P43250)
ENDPOINT UNIT: %
residual activity: 88.3
//
COMPOUND STRING: COc1ccc2c(c1)/C(=C/c1cnc[nH]1)C(O)=N2
TESTED SYSTEM: GRK6 (human) (UniProt P43250)
ENDPOINT UNIT: %
residual activity: 85.2
//
COMPOUND STRING: COc1ccc(S(=O)(=O)N(CCO)c2ccccc2CN(C)C/C=C/c2ccc(Cl)cc2)cc1
TESTED SYSTEM: GRK6 (human) (UniProt P43250)
ENDPOINT UNIT: %
residual activity: 106
//
COMPOUND STRING: CS(=O)(=O)CCNCc1ccc(-c2ccc3ncnc(Nc4ccc(OCc5cccc(F)c5)c(Cl)c4)c3c2)o1
TESTED SYSTEM: GRK6 (human) (UniProt P43250)
ENDPOINT UNIT: %
residual activity: 101
//
COMPOUND STRING: COc1cc(Nc2c(C#N)cnc3cc(OCCCN4CCN(C)CC4)c(OC)cc23)c(Cl)cc1Cl
TESTED SYSTEM: GRK6 (human) (UniProt P43250)
ENDPOINT UNIT: %
residual activity: 99.5
//
COMPOUND STRING: CN(C)S(=O)(=O)c1ccc2c(c1)/C(=C/c1cc3c([nH]1)CCCC3)C(=O)N2
TESTED SYSTEM: GRK6 (human) (UniProt P43250)
ENDPOINT UNIT: %
residual activity: 82.6
//
COMPOUND STRING: NC(=O)c1cccc(-c2cc(Nc3ccc(OC(F)(F)F)cc3)ncn2)c1
TESTED SYSTEM: GRK6 (human) (UniProt P43250)
ENDPOINT UNIT: %
residual activity: 101
//
COMPOUND STRING: COc1cc2ncnc(Nc3ccc(OCc4ccccc4)cc3)c2cc1OC
TESTED SYSTEM: GRK6 (human) (UniProt P43250)
ENDPOINT UNIT: %
residual activity: 104
//
COMPOUND STRING: COc1ccc(C(=O)Nc2sc3c(c2C(N)=O)CCCC3)cc1OC
TESTED SYSTEM: GRK6 (human) (UniProt P43250)
ENDPOINT UNIT: %
residual activity: 98.5
//
COMPOUND STRING: Cc1nc(-c2ccccc2)c(-c2ccncc2)o1
TESTED SYSTEM: GRK6 (human) (UniProt P43250)
ENDPOINT UNIT: %
residual activity: 105
//
COMPOUND STRING: O=C1Nc2ccc(Br)cc2/C1=C\c1cc2c([nH]1)CCCC2
TESTED SYSTEM: GRK6 (human) (UniProt P43250)
ENDPOINT UNIT: %
residual activity: 95.8
//
COMPOUND STRING: CN(C)CCCn1cc(C2=C(c3c[nH]c4ccccc34)C(=O)NC2=O)c2ccccc21
TESTED SYSTEM: GRK6 (human) (UniProt P43250)
ENDPOINT UNIT: %
residual activity: 72
//
COMPOUND STRING: Fc1ccc(-c2nc3n(c2-c2ccncc2)CCS3)cc1
TESTED SYSTEM: GRK6 (human) (UniProt P43250)
ENDPOINT UNIT: %
residual activity: 103
//
COMPOUND STRING: N#Cc1c[nH]c2c[nH]/c(=N\Cc3cccnc3)cc2/c1=N\c1ccc(F)c(Cl)c1
TESTED SYSTEM: GRK6 (human) (UniProt P43250)
ENDPOINT UNIT: %
residual activity: 106
